Could you please report measured viability, T/C for the items listed next?
Test system: 958767-090-R-J1-PDC spheroid growth;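 also: spheroids exposed to agents for 7 days; 100% = DMSO vehicle control wells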
Assay: Anticancer human tumor 958767-090-R-J1-PDC patient-derived head and neck squamous carcinoma cell line growth inhibition [IpAb]
Settings: second compound 0.1 µM; first compound 0.316 µM; active compounds read low; spheroids with HUVEC and MSC
Method: Combinatorial screen of targeted agents with ipatasertib and abemaciclib in multi-cell type tumor spheroids […] Compounds. […] If the clinical Cmax for an agent had not been determined, the highest concentration tested was 10 microM. NCI60 Cell Culture. […] The optimal seeding densities for each of the cell lines at each time point assessed were determined prior to performing the concentration response studies. […]
Hi! Could you send only the number? It should be in %, unit omitted.

q: Recorded viability, T/C for Cc1nc(NC(=O)N2CCCC2C(N)=O)sc1-c1ccnc(C(C)(C)C(F)(F)F)c1 (stereo not drawn) + CC(C)NCC(C(=O)N1CCN(c2ncnc3c2C(C)CC3O)CC1)c1ccc(Cl)cc1 , please?
a: 38.1

q: Recorded viability, T/C for C=CCn1c(=O)c2cnc(Nc3ccc(N4CCN(C)CC4)cc3)nc2n1-c1cccc(C(C)(C)O)n1 + CCN1CCN(Cc2ccc(Nc3ncc(F)c(-c4cc(F)c5nc(C)n(C(C)C)c5c4)n3)nc2)CC1 , please?
a: 47.1

q: Recorded viability, T/C for Cn1ncc(Cl)c1-c1cc(C(=O)NC(CN)Cc2cccc(F)c2)sc1Cl (stereo not drawn) + CC(C)NCC(C(=O)N1CCN(c2ncnc3c2C(C)CC3O)CC1)c1ccc(Cl)cc1 , please?
a: 54.5

Values were extracted from PubChem BioAssay AID2060336.
